# TEST_TARGET: ATX (Homo sapiens, UniProt Q13822)
# Construct: conditioned serum-free medium (CCM) from MDA-MB-435 cells as the source of ATX; endogenous in cells; host or cells: MDA-MB-435 cells (about 10x concentrated conditioned serum-free medium)
# MEASUREMENT_NOTES: ATX inhibition assay (FS-3 substrate)
# Type: biochemical
# STUDY_CONDITIONS: preliminary screen; FS-3 hydrolysis at one hour, normalized to vehicle control, mean±S.D.; same values given at 10 μM in Table 5
PROPERTY_MEASURED: % Response (%)

Known results for molecules:
NC(=N\N=C/c1ccccc1S(=O)(=O)O)/C(N)=N\N=C/c1ccccc1S(=O)(=O)O.[Na+] 95
COc1ccccc1N=Nc1c(S(=O)(=O)[O-])cc2cc(NC(=O)Nc3ccc4c(O)c(N=Nc5ccc(S(=O)(=O)[O-])cc5C)c(S(=O)(=O)[O-])cc4c3)ccc2c1O.[Na+].[Na+].[Na+] 41

(1) CC(=O)Nc1ccc(C=Cc2ccc(NC(=O)Nc3ccc(C=Cc4ccc(NC(C)=O)cc4S(=O)(=O)O)c(S(=O)(=O)O)c3)cc2S(=O)(=O)O)c(S(=O)(=O)O)c1
(2) Cc1ccccc1N=Nc1c(S(=O)(=O)[O-])cc2cc(NC(=O)Nc3ccc4c(O)c(N=Nc5ccc6cc(S(=O)(=O)[O-])ccc6c5)c(S(=O)(=O)[O-])cc4c3)ccc2c1O.[Na+].[Na+].[Na+]
(3) COc1ccc(/C=N\NC(=O)N/N=C/c2ccc(OC)c(S(=O)(=O)O)c2)cc1S(=O)(=O)O.[Na+]
Order the entries by their reported % Response, beginning at the minimum. # format: label list in the order the request specifies
2, 1, 3
(2: 29%, 1: 51%, 3: 98%)

###

# TEST_TARGET: ATX (Homo sapiens, UniProt Q13822)
# Construct: conditioned serum-free medium (CCM) from MDA-MB-435 cells as the source of ATX; endogenous in cells; host or cells: MDA-MB-435 cells (about 10x concentrated conditioned serum-free medium)
# MEASUREMENT_NOTES: ATX inhibition assay (FS-3 substrate)
# Format: biochemical
# STUDY_CONDITIONS: preliminary screen; FS-3 hydrolysis at one hour, normalized to vehicle control, mean±S.D.; same values given at 10 μM in Table 5
Where a SMILES comes first, the peptide text is derived from it. [ ]: non-standard residue; d: D form. Phe(4-Cl) = N[CH](Cc1ccc(Cl)cc1)C(=O)O; 3Pal = N[CH](Cc1cccnc1)C(=O)O
PROPERTY_MEASURED: % Response (%)

Known results for compounds:
COMPOUND	% Response (%)
CC(=O)NC(Cc1ccc(Cl)cc1)C(=O)NC(Cc1ccc(Cl)cc1)C(=O)NC(Cc1cccnc1)C(=O)NC(CO)C(=O)NC(Cc1ccc(O)cc1)C(=O)NC(CCCN=C(N)N)C(=O)NC(CC(C)C)C(=O)NC(CCCN=C(N)N)C(=O)N1CCCC1C(=O)NC(C)C(=O)O (stereo not shown) [compound 373963] (Ac-[Phe(4-Cl)][Phe(4-Cl)][3Pal]SYRLRPA-OH; configuration not given here)	96
Nc1c(N=Nc2ccc([N+](=O)[O-])cc2)c(S(=O)(=O)O)cc2cc(S(=O)(=O)O)c(N=Nc3ccc(-c4ccc(N=Nc5c(S(=O)(=O)O)cc6cc(S(=O)(=O)O)c(N=Nc7ccc([N+](=O)[O-])cc7)c(N)c6c5O)cc4)cc3)c(O)c12.[Na+]	46
Nc1ccc(C(=O)Nc2ccc(C(=O)Nc3ccc4c(O)cc(S(=O)(=O)O)cc4c3)cc2)cc1	60
CC(C)(C)OC(=O)NC(CC(Cc1ccccc1)C(=O)O)C(=O)NC(CC(Cc1ccccc1)C(=O)O)C(=O)NC(CC(Cc1ccccc1)C(=O)O)C(=O)NCC(=O)Oc1ccc([N+](=O)[O-])cc1 (stereo not shown)	43
Nc1cccc(N=Nc2c(S(=O)(=O)[O-])cc3cc(Nc4ccc5c(O)c(N=Nc6cccc(N)c6)c(S(=O)(=O)[O-])cc5c4)ccc3c2O)c1.[Na+].[Na+] [compound 58055]	89
O=C(Nc1ccc2cc(S(=O)(=O)O)cc(O)c2c1)Nc1ccc2cc(S(=O)(=O)O)cc(O)c2c1	106
O=C(COc1ccc(Cl)cc1C(=O)O)NCc1cccc(NC(=O)Nc2ccc(S(=O)(=O)F)cc2)c1	95
COc1ccc(C(=O)Nc2ccc(/C=C/c3ccc(NC(=O)c4ccc(OC)cc4)cc3S(=O)(=O)O)c(S(=O)(=O)O)c2)cc1.[Na+]	98
Cc1ccccc1N=C(N)Nc1ccccc1C.Nc1c(N=Nc2ccc([N+](=O)[O-])cc2)c(S(=O)(=O)O)cc2cc(S(=O)(=O)O)c(N=Nc3ccc(Sc4ccc(N=Nc5ccc(O)cc5)cc4)cc3)c(O)c12	73
O=C(Nc1ccc2c(O)cc(S(=O)(=O)[O-])cc2c1)Nc1ccc2c(O)c(N=Nc3ccc4cc(S(=O)(=O)[O-])ccc4c3)c(S(=O)(=O)[O-])cc2c1.[Na+].[Na+].[Na+]	64

(A) CCOc1ccc(N=c2ccc3c(-c4c(Cl)ccc(Cl)c4C(=O)O)c4ccc(Nc5ccc(OCC)cc5S(=O)(=O)O)cc4oc-3c2)cc1.[Na+]
(B) O=C1C(Cl)=C(Nc2ccc(C(=O)Nc3ccc4cc(S(=O)(=O)O)cc(S(=O)(=O)O)c4c3)cc2)C(=O)C(Cl)=C1Nc1ccc(C(=O)Nc2ccc3cc(S(=O)(=O)O)cc(S(=O)(=O)O)c3c2)cc1.[Na+]
(C) O=C(Nc1ccc2c(O)cc(S(=O)(=O)O)cc2c1)Nc1ccc2c(O)cc(S(=O)(=O)O)cc2c1
Order the entries by their reported % Response, beginning at the minimum. # format: label list in the order the request specifies
B, A, C
(B: 27%, A: 52%, C: 89%)

(A) Cc1ccccc1N=Nc1ccc(N=Nc2c(S(=O)(=O)O)cc3cc(S(=O)(=O)O)c(N=Nc4ccc([N+](=O)[O-])cc4)c(N)c3c2O)c(C)c1.[Na+]
(B) Cc1cccc(N=Nc2c(S(=O)(=O)O)cc3cc(NC(=O)Nc4ccc5c(O)c(N=Nc6ccc7cc(S(=O)(=O)O)ccc7c6)c(S(=O)(=O)O)cc5c4)ccc3c2O)c1.[Na+]
Quick one: lower % Response, A or B ? Use the label to indicate which entry you chose.
B
(B: 20%, A: 71%)

###

# TEST_TARGET: ATX (Homo sapiens, UniProt Q13822)
# Construct: conditioned serum-free medium (CCM) from MDA-MB-435 cells as the source of ATX; endogenous in cells; host or cells: MDA-MB-435 cells (about 10x concentrated conditioned serum-free medium)
# MEASUREMENT_NOTES: ATX inhibition assay (FS-3 substrate)
# Format: biochemical
# STUDY_CONDITIONS: preliminary screen; FS-3 hydrolysis at one hour, normalized to vehicle control, mean±S.D.; same values given at 10 μM in Table 5
PROPERTY_MEASURED: % Response (%)

(A) O=C(Nc1ccc2cc(S(=O)(=O)O)ccc2c1)c1ccc(N=Nc2c(S(=O)(=O)O)cc3cc(S(=O)(=O)O)cc(NC(=O)c4ccccc4)c3c2O)cc1.[Na+]
(B) Nc1c(N=Nc2ccc([N+](=O)[O-])cc2)c(S(=O)(=O)O)cc2cc(S(=O)(=O)O)c(N=Nc3ccc(-c4ccc(N=Nc5ccc(O)cc5)cc4)cc3)c(O)c12.[Na+] [compound 7234]
Quick one: lower % Response, A or B ? Use the label to indicate which entry you chose.
A
(A: 28%, B: 49%)

###

# TEST_TARGET: ATX (Homo sapiens)
# Construct: conditioned serum-free medium (CCM) from MDA-MB-435 cells as the source of ATX; endogenous in cells; host or cells: MDA-MB-435 cells (about 10x concentrated conditioned serum-free medium)
# MEASUREMENT_NOTES: ATX inhibition assay (FS-3 substrate)
# Assay type: biochemical
# STUDY_CONDITIONS: Calculated IC50 data for the 30 active compounds; FS-3 substrate
PROPERTY_MEASURED: IC50 (µM)

COMPOUND	TEST_TARGET	VALUE_UNIT	IC50
Nc1ccc(N=Nc2ccc(-c3ccc(N=Nc4c(S(=O)(=O)[O-])cc5cc(S(=O)(=O)[O-])c(N=Nc6ccc([N+](=O)[O-])cc6)c(N)c5c4O)cc3)cc2)c2cc(S(=O)(=O)[O-])ccc12.[Na+].[Na+].[Na+]	ATX (Homo sapiens)	µM	8.33
COc1ccccc1N=Nc1c(S(=O)(=O)[O-])cc2cc(NC(=O)Nc3ccc4c(O)c(N=Nc5ccc(S(=O)(=O)[O-])cc5C)c(S(=O)(=O)[O-])cc4c3)ccc2c1O.[Na+].[Na+].[Na+]	ATX (Homo sapiens)	µM	18.2
Cc1c(N)cc(S(=O)(=O)O)c(N=Nc2ccc(-c3ccc(N=Nc4c(S(=O)(=O)O)cc5cc(S(=O)(=O)O)c(N=Nc6cccc([N+](=O)[O-])c6)c(N)c5c4O)cc3)cc2)c1N.[Na+]	ATX (Homo sapiens)	µM	5.88
O=C(Nc1ccc2cc(S(=O)(=O)O)ccc2c1)c1ccc(N=Nc2c(S(=O)(=O)O)cc3cc(S(=O)(=O)O)cc(NC(=O)c4ccccc4)c3c2O)cc1.[Na+]	ATX (Homo sapiens)	µM	8.85
Cc1cc(S(=O)(=O)O)ccc1N=c1ccc2c(-c3ccccc3C(=O)[O-])c3ccc(Nc4ccccc4C)cc3oc-2c1.[Na+]	ATX (Homo sapiens)	µM	10.2

(A) Nc1ccc(N=Nc2ccc(-c3ccc(N=Nc4c(S(=O)(=O)[O-])cc5cc(S(=O)(=O)[O-])c(N=Nc6cccc([N+](=O)[O-])c6)c(N)c5c4O)cc3)cc2)c2cc(S(=O)(=O)[O-])ccc12.[Na+].[Na+].[Na+]
(B) Nc1ccc2cc(S(=O)(=O)[O-])c(N=Nc3ccc(-c4ccc(N=Nc5c(S(=O)(=O)[O-])cc6cc(S(=O)(=O)[O-])cc(N)c6c5O)cc4)cc3)c(O)c2c1.[Na+].[Na+].[Na+]
(C) O=C1C(Cl)=C(Nc2ccc(C(=O)Nc3ccc4cc(S(=O)(=O)O)cc(S(=O)(=O)O)c4c3)cc2)C(=O)C(Cl)=C1Nc1ccc(C(=O)Nc2ccc3cc(S(=O)(=O)O)cc(S(=O)(=O)O)c3c2)cc1.[Na+]
(D) Nc1ccc(N=Nc2ccc(-c3ccc(N=Nc4c(S(=O)(=O)O)cc5cc(S(=O)(=O)O)c(N=Nc6ccc([N+](=O)[O-])cc6)c(N)c5c4O)cc3)cc2)c(N)c1.[Na+]
Please list the entries, largest IC50 first. # format: label list in the order the request specifies
D, A, B, C
(D: 15.2 µM, A: 7.04 µM, B: 1.26 µM, C: 0.805 µM)
